Entries and their measured pIC50 follow.
target: Dog Kidney Na+, K+-ATPase (Canis lupus familiaris, UniProt P50997); assay: Inhibition of the enzymatic activity of purified Na+,K+-ATPase (hydrolysis of 32P-ATP); assay type: biochemical; conditions: Na+, K+-ATPase Inhibition IC50
Counter-ions that a name gives are not always drawn.
Conceptually, pIC50 converts a concentration in mol/L into minus its log10.

Examples from the recorded data:
CC12CCC3C(CC(O)C4CC(=NOC5CCNC5)CCC43C)C1CCC2=O (single isomer, unassigned) [I-ao, hydrochloride] = 5.64
CC12CCC3C(C(=O)CC4CC(=NOC5CCNC5)CCC43C)C1CCC2=O (single isomer, unassigned) [I-cb] = 7.05
CC12CCC3C(CC(O)C4CC(=NOC5CCNC5)CCC43C)C1CCC2=O (single isomer, unassigned) [I-dp, hydrochloride] = 5.92
C=C1CC2C3CCC(=O)C3(C)CCC2C2(C)CCC(=NOC3CCNC3)CC12 (mixture of isomers) [I-aq, hydrochloride] = 7.34
CC12CCC3C(C(O)CC4CC(=NOC5CCNC5)CCC43C)C1CCC2=O (mixture of isomers) [I-cj] = 6.66

## Task Request the reported pIC50 associated with C=C1C[C@H]2[C@@H]3CCC(=O)[C@@]3(C)CC[C@@H]2[C@@]2(C)CC/C(=N\O[C@H]3CCNC3)C[C@]12O [I-bj]
## Result 6.32

## Task Request the reported pIC50 associated with CC12CCC3C(C(O)C(CO)C4CC(=NOC5CCNC5)CCC43C)C1CCC2=O (single isomer, unassigned) [I-dk, hydrochloride]
## Result 8.24

These entries and their values trace back to patent US8536160B2.
